Each recorded value in this set is attributed to patent US20120059162A1.

Target: TTK (Homo sapiens, UniProt P33981)
Sequence (P33981 whole entry): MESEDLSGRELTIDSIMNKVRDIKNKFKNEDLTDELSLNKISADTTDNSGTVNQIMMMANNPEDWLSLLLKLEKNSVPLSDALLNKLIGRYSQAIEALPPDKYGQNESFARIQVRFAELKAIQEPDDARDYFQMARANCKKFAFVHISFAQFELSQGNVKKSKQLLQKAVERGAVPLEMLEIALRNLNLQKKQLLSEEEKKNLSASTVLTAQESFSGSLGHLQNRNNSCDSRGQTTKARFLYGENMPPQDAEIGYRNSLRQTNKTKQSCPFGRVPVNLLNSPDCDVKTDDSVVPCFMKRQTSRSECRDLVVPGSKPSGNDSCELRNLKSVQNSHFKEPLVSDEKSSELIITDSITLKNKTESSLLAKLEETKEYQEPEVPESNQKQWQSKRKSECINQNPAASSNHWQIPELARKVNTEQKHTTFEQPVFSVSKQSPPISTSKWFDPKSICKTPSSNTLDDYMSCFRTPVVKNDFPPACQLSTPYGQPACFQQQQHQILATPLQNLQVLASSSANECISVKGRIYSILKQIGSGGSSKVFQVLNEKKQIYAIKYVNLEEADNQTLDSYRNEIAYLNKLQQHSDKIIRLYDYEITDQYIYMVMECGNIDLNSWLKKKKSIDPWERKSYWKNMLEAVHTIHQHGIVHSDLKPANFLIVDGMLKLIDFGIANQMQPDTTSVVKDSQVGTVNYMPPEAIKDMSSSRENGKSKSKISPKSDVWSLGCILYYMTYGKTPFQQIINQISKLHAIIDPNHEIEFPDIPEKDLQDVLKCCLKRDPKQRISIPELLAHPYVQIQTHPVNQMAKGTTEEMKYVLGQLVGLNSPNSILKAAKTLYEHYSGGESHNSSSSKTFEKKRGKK
Assay: TTK assay: screening of TTK kinase activity suppressing action using p38 MAPK peptide
Type: biochemical
Conditions: read-out: TTK IC50
Labelling: IC50 reported below 8 nM becomes 1; at or above becomes -1.

Some entries whose results are on file:
Cc1cc(-c2cnc3c(NCC4CCOCC4)cc(NC4CCCC4)nn23)ccc1C(=O)NC1CC1 [Example 2-232]: 1
O=C(NC1CC1)c1ccc(-c2noc3c(NCC4CCOCC4)nc(NC4CCCC4)nc23)cc1 [Example 3-4]: -1
O=C(NC1CC1)c1ccc(-c2cnc3c(NCC4CCOCC4)cc(OC4C5CC6CC(C5)CC4C6)nn23)cc1 (stereo not shown) [Example 2-191]: 1
NC1CCCCC1Oc1cc(NCC2CCOCC2)c2ncc(-c3ccc(C(=O)NC4CC4)cc3)n2n1 (stereo not shown) [Example 2-189]: -1
CC(C)(C)Oc1cc(NCC2CCOCC2)c2ncc(-c3ccc(C(=O)NC4CC4)cc3)n2n1 [Example 2-182]: -1

Please state whether IC50 is below 8 nM for COc1cc(C#N)ccc1-c1cc(NCC2CCOCC2)c2ncc(-c3ccc(C(=O)NC4CC4)cc3)n2n1 [Example 2-205]
1

Please state whether IC50 is below 8 nM for O=C(NC1CC1)c1ccc(-c2cnc3c(NCC4CCOCC4)cc(OC4CCCC4)nn23)cc1 [Example 2-173]
1
